Listed here: items and their measured viability, T/C.
Test system: KRAS-mutant PDC tumor spheroid with HUVEC/MSC, viability;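 note: spheroids exposed to agents for seven days before reading; 100% = DMSO vehicle wells so lower means fewer viable cells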
procedure.summary: Anticancer human tumor 327498-153-R-J2-PDC patient-derived uterine carcinosarcoma cell line growth inhibition [KRAS2]
test.settings: second compound 3.16 µM; first compound 1 µM; hits give low values
Excerpt: Multicellular complex tumor spheroid response to RAS pathway inhibitors in combination with a targeted agents in patient-derived cell lines with oncogenic KRAS variants from multiple cancer types A high-throughput screen of multi-cell type tumor spheroids was designed to identify active combinations of targeted small molecules and KRAS pathway inhibitors. […] Compounds. […] If the clinical Cmax for an agent had not been determined, the highest concentration tested was 10 microM. […]

compound	quantity.unit	viability, T/C
CC1OCC2(CCN(c3cnc(Sc4ccnc(N)c4Cl)c(N)n3)CC2)C1N (stereo not given) + C=CC(=O)N1CCN(c2nc(=O)n(-c3c(C)ccnc3C(C)C)c3nc(-c4c(O)cccc4F)c(F)cc23)C(C)C1	%	23.2
O=C(c1cc(Cc2n[nH]c(=O)c3ccccc23)ccc1F)N1CCN(C(=O)C2CC2)CC1 + CC1OCC2(CCN(c3cnc(Sc4ccnc(N)c4Cl)c(N)n3)CC2)C1N	%	28.7
CCN1CCN(Cc2ccc(Nc3ncc(F)c(-c4cc(F)c5nc(C)n(C(C)C)c5c4)n3)nc2)CC1 + C=CC(=O)N1CCN(c2nc(=O)n(-c3c(C)ccnc3C(C)C)c3nc(-c4c(O)cccc4F)c(F)cc23)C(C)C1	%	36.9
COC(=O)c1ccc2c(C(=Nc3ccc(N(C)C(=O)CN4CCN(C)CC4)cc3)c3ccccc3)c(O)[nH]c2c1 + CNCc1ccccc1-c1csc(C(C)Nc2nc(C)nc3cc(OC)c(OC)cc23)c1	%	0.15
COC(=O)c1ccc2c(C(=Nc3ccc(N(C)C(=O)CN4CCN(C)CC4)cc3)c3ccccc3)c(O)[nH]c2c1 + C=CC(=O)N1CCN(c2nc(=O)n(-c3c(C)ccnc3C(C)C)c3nc(-c4c(O)cccc4F)c(F)cc23)C(C)C1	%	11.5
O=C(c1cc(Cc2n[nH]c(=O)c3ccccc23)ccc1F)N1CCN(C(=O)C2CC2)CC1 + C=CC(=O)N1CCN(c2nc(=O)n(-c3c(C)ccnc3C(C)C)c3nc(-c4c(O)cccc4F)c(F)cc23)C(C)C1	%	46.4
CC1COCCN1c1cc(-c2ccnn2C)c2ccnc(-c3ccn[nH]3)c2n1 (stereo not given) + COc1cc2nc(C)nc(NC(C)c3cc(N)cc(C(F)(F)F)c3)c2cc1OC1CCOC1	%	3.28
CC(=O)OC12COC1CC(O)C1(C)C(=O)C(O)C3=C(C)C(OC(=O)C(O)C(NC(=O)OC(C)(C)C)c4ccccc4)CC(O)(C(OC(=O)c4ccccc4)C21)C3(C)C (stereo not given) + C=CC(=O)N1CCN(c2nc(OCC3CCCN3C)nc3c2CCN(c2cccc4cccc(C)c24)C3)CC1CC#N	%	7.24
COC(=O)c1ccc2c(C(=Nc3ccc(N(C)C(=O)CN4CCN(C)CC4)cc3)c3ccccc3)c(O)[nH]c2c1 + CC1OCC2(CCN(c3cnc(Sc4ccnc(N)c4Cl)c(N)n3)CC2)C1N	%	14.1
COc1cc2nccc(Oc3ccc(NC(=O)C4(C(=O)Nc5ccc(F)cc5)CC4)cc3)c2cc1OC + COc1cc2nc(C)nc(NC(C)c3cc(N)cc(C(F)(F)F)c3)c2cc1OC1CCOC1	%	22.1
CCNC(=O)CC1N=C(c2ccc(Cl)cc2)c2cc(OC)ccc2-n2c(C)nnc21 (stereo not given) + CC1OCC2(CCN(c3cnc(Sc4ccnc(N)c4Cl)c(N)n3)CC2)C1N	%	16.9
COc1cc(Nc2ncc3c(n2)-c2ccc(Cl)cc2C(c2c(F)cccc2OC)=NC3)ccc1C(=O)O + COc1cc2nc(C)nc(NC(C)c3cc(N)cc(C(F)(F)F)c3)c2cc1OC1CCOC1	%	9.93
CC(C)NCC(C(=O)N1CCN(c2ncnc3c2C(C)CC3O)CC1)c1ccc(Cl)cc1 (stereo not given) + COc1cc2nc(C)nc(NC(C)c3cc(N)cc(C(F)(F)F)c3)c2cc1OC1CCOC1	%	14.2
O=C(c1cc(Cc2n[nH]c(=O)c3ccccc23)ccc1F)N1CCN(C(=O)C2CC2)CC1 + COc1cc2nc(C)nc(NC(C)c3cc(N)cc(C(F)(F)F)c3)c2cc1OC1CCOC1	%	66.3
CCN1CCN(Cc2ccc(Nc3ncc(F)c(-c4cc(F)c5nc(C)n(C(C)C)c5c4)n3)nc2)CC1 + CC1OCC2(CCN(c3cnc(Sc4ccnc(N)c4Cl)c(N)n3)CC2)C1N	%	22.1
CC1(C)CCC(CN2CCN(c3ccc(C(=O)NS(=O)(=O)c4ccc(NCC5CCOCC5)c([N+](=O)[O-])c4)c(Oc4cnc5[nH]ccc5c4)c3)CC2)=C(c2ccc(Cl)cc2)C1 + COc1cc2nc(C)nc(NC(C)c3cc(N)cc(C(F)(F)F)c3)c2cc1OC1CCOC1	%	61.5
Cn1nccc1Nc1nccc(-c2cc3c(s2)C(C)(C)N(CCN2CCOCC2)C3=O)n1 + C=CC(=O)N1CCN(c2nc(OCC3CCCN3C)nc3c2CCN(c2cccc4cccc(C)c24)C3)CC1CC#N	%	0.16
CC1COCCN1c1cc(-c2ccnn2C)c2ccnc(-c3ccn[nH]3)c2n1 (stereo not given) + C=CC(=O)N1CCN(c2nc(=O)n(-c3c(C)ccnc3C(C)C)c3nc(-c4c(O)cccc4F)c(F)cc23)C(C)C1	%	7.29
COc1cc2nccc(Oc3ccc(NC(=O)C4(C(=O)Nc5ccc(F)cc5)CC4)cc3)c2cc1OC + C=CC(=O)N1CCN(c2nc(OCC3CCCN3C)nc3c2CCN(c2cccc4cccc(C)c24)C3)CC1CC#N	%	0.16
CC1COCCN1c1cc(-c2ccnn2C)c2ccnc(-c3ccn[nH]3)c2n1 (stereo not given) + CNCc1ccccc1-c1csc(C(C)Nc2nc(C)nc3cc(OC)c(OC)cc23)c1	%	0.03
